The reported measurements were obtained from PubChem BioAssay (Tox21).

method: qHTS assay to identify small molecule antagonists of the constitutive androstane receptor (CAR) signaling pathway - cell viability counter screen (AID 1224837); also: nearly all actives have a fitted effect of over 45% in size
settings: HepG2-CYP2B6-hCAR viability, CellTiter-Fluor, 23 h, co-treated with 50 nM CITCO; series mostly up to 92.4 µM
Records with an inconclusive call do not appear. Activity calls are given as the source filed them. Calls follow the shape of the dose curve; as a rule, active = well fitted cell-killing curve with a large enough effect in the repeat runs; inconclusive = weak or mixed curves, or effect the other way; inactive = flat fitted curve, though single readings scatter.
Write down one outcome, taken from Yes for active, No for inactive

Input line: # fetch the recorded call for "CCCCCCCCCCCCCCCC[N+](C)(C)C" here
Output line: Yes

Input line: # fetch the recorded call for "[Hg+2].[I-].[I-]" here
Output line: Yes

Input line: # fetch the recorded call for "CC(=O)[O-].CC(=O)[O-].O.O.[Cd+2]" here
Output line: Yes

Input line: # fetch the recorded call for "COc1ccc(OC)c(C=O)c1" here
Output line: No

Input line: # fetch the recorded call for O=C1NCN(c2ccccc2)C12CCN(CC1COc3ccccc3O1)CC2 (configuration not stated) here
Output line: No

Input line: # fetch the recorded call for "CCS(=O)(=O)c1cccnc1S(=O)(=O)NC(=O)Nc1nc(OC)cc(OC)n1" here
Output line: No

Input line: # fetch the recorded call for "CCOP(=S)(OCC)SCS(=O)(=O)C(C)(C)C" here
Output line: No

Input line: # fetch the recorded call for "N#Cc1c(-c2ccc(Cl)cc2)[nH]c(C(F)(F)F)c1Br" here
Output line: Yes

Input line: # fetch the recorded call for "CCCN(CCC)CCc1c[nH]c2ccccc12" here
Output line: No

Input line: # fetch the recorded call for "Nc1ccccc1C(=O)OC/C=C/c1ccccc1" here
Output line: No

Input line: # fetch the recorded call for "CC(=O)C(Cl)(Cl)Cl" here
Output line: Yes

Input line: # fetch the recorded call for "N#Cc1ccc(O)cc1" here
Output line: No

Input line: # fetch the recorded call for "CN(CCCC(=O)c1cccnc1)N=O" here
Output line: No

Input line: # fetch the recorded call for "COc1cc(C=O)cc2c1[C@H](COC(N)=O)[C@]1(OC(C)=O)ON2C[C@H]2[C@@H]1N2C(C)=O" here
Output line: Yes

Input line: # fetch the recorded call for CC(C)CC(C)N (configuration not stated) here
Output line: No

Input line: # fetch the recorded call for "COCC(=O)N(c1c(C)cccc1C)[C@H](C)C(=O)OC" here
Output line: No

Input line: # fetch the recorded call for "CCCCCCCCCBr" here
Output line: No

Input line: # fetch the recorded call for C=CCC1=C(C)C(OC(=O)C2C(C=C(C)C)C2(C)C)CC1=O (configuration not stated) here
Output line: No

Input line: # fetch the recorded call for "O=[N+]([O-])c1cc(C(F)(F)F)c(Cl)c([N+](=O)[O-])c1Cl" here
Output line: Yes

Input line: # fetch the recorded call for "Cc1cc(C)cc(OP(=O)(Oc2cc(C)cc(C)c2)Oc2cc(C)cc(C)c2)c1" here
Output line: No

Input line: # fetch the recorded call for "O=C(O)COc1nc(Cl)c(Cl)cc1Cl" here
Output line: No

Input line: # fetch the recorded call for "CCOC(=O)c1ccccc1S(=O)(=O)NC(=O)Nc1nc(Cl)cc(OC)n1" here
Output line: No

Input line: # fetch the recorded call for "O=[N+]([O-])c1cc(Cl)ccc1Cl" here
Output line: No

Input line: # fetch the recorded call for ClC1=C(Cl)C2(Cl)C3C(Cl)C=CC3C1(Cl)C2(Cl)Cl (configuration not stated) here
Output line: No

Input line: # fetch the recorded call for "ClC1=C(Cl)[C@]2(Cl)[C@@H]3[C@@H](Cl)[C@@H](Cl)C[C@@H]3[C@@]1(Cl)C2(Cl)Cl" here
Output line: No

Input line: # fetch the recorded call for "FC(Cl)(Cl)Cl" here
Output line: No

Input line: # fetch the recorded call for "CN(C)C1CSSSC1" here
Output line: No

Input line: # fetch the recorded call for "COc1ccc(/C(=C/C(=O)N2CCOCC2)c2ccc(Cl)cc2)cc1OC" here
Output line: No

Input line: # fetch the recorded call for CCCCCCCCCCCCCCC(Br)C(=O)O (configuration not stated) here
Output line: No

Input line: # fetch the recorded call for CCOc1cc(C(C)(C)C)ccc1C1COC(c2c(F)cccc2F)=N1 (configuration not stated) here
Output line: No

Input line: # fetch the recorded call for "CCOCn1c(-c2ccc(Cl)cc2)c(C#N)c(Br)c1C(F)(F)F" here
Output line: Yes

Input line: # fetch the recorded call for "Clc1ccc(C(Cl)(Cl)Cl)c(Cl)c1" here
Output line: No

Input line: # fetch the recorded call for "O=C(CBr)c1ccc(O)cc1" here
Output line: No

Input line: # fetch the recorded call for "CCCCOP(=O)(CCCC)OCCCC" here
Output line: No

Input line: # fetch the recorded call for CN(CCCC(O)c1cccnc1)N=O (configuration not stated) here
Output line: No

Input line: # fetch the recorded call for O=c1c(C2CC(c3ccc(-c4ccc(Br)cc4)cc3)Cc3ccccc32)c(O)sc2ccccc12 (configuration not stated) here
Output line: No

Input line: # fetch the recorded call for "N#CC(Cl)Cl" here
Output line: No

Input line: # fetch the recorded call for "Clc1ccc(Oc2ccccc2)cc1" here
Output line: No

Input line: # fetch the recorded call for "Nc1c(Oc2ccccc2)cc(O)c2c1C(=O)c1ccccc1C2=O" here
Output line: No

Input line: # fetch the recorded call for "O=CC(Br)(Br)Br" here
Output line: Yes

Input line: # fetch the recorded call for "Clc1ccc(-c2ccc(Cl)c(Cl)c2Cl)c(Cl)c1Cl" here
Output line: No

Input line: # fetch the recorded call for "CCCCCCCCCCCCCCCCCCn1cc[n+](C)c1" here
Output line: Yes
